test: Unbound tissue partition coefficient, ratio of drug level in heart to plasma in Wistar Han rat at 1 to 2 mg/kg, iv infused for 10 to 20 hrs by LC-MS/MS analysis
details: other tissue
reported-metric: Kp uu
Number only, no unit.

The measured Kp uu associated with `COc1cc2nc(N3CCN(C(=O)c4ccco4)CC3)nc(N)c2cc1OC` reads 2.4

The measured Kp uu associated with `CC(C)c1nc(CN(C)C(=O)N[C@H](C(=O)N[C@@H](Cc2ccccc2)C[C@H](O)[C@H](Cc2ccccc2)NC(=O)OCc2cncs2)C(C)C)cs1` reads 9.6

* * *

Exercise: for every item that follows, state its recorded Kp uu.
test: Unbound tissue partition coefficient, ratio of drug level in liver to plasma in Wistar Han rat at 1 to 2 mg/kg, iv infused for 10 to 20 hrs by LC-MS/MS analysis
details: liver/plasma
Number only, no unit.

The measured Kp uu associated with `CCCn1cnc(C[C@H](CCCN)C(=O)O)c1` reads 0.63

The measured Kp uu associated with `Cn1cnc(-c2ccc(O[C@H]3CCN(C(=O)Cc4ccc(OC(F)(F)F)cc4)C[C@@H]3F)c(C(N)=O)c2)c1` reads 4.4

The measured Kp uu associated with `COc1cc2c(OC[C@H]3NC(=O)[C@@H]4C[C@]34C)nccc2cc1C(N)=O` reads 11

The measured Kp uu associated with `COc1ccc(Cc2cc([C@@H]3OC4(COC4)[C@@H](O)[C@H](O)[C@H]3O)ccc2C)cc1` reads 2.7

The measured Kp uu associated with `CC(C)C[C@H](Nc1ccc(C(=O)NCCC(=O)O)cn1)c1ccc(-c2ccc(C(F)(F)F)cn2)cc1` reads 12
